Every entry's value here was drawn from PubChem BioAssay (NCI).

Here the recorded growth is given for each entry.
Tested on: SNB-19 CNS
Experiment: NCI-60 one-dose screen, 48 h (100 = growth as untreated, 0 = no growth, -100 = all killed)
Settings: 10 µM unless noted
Compounds without any hit were thinned out: in the full panel of roughly 83,000, 20% have a hit.
Readout type: growth (%)

                                    compound  observed_value
 0  CC(=O)c1c(O)c(C)c(O)c2c1OC1=CC(=O)C(C(C)=O)C(=O)C12C (stereo not given)            96.9
 1              S=C(SSC(=S)N1CCOCC1)N1CCOCC1             111
 2  CC1(C)N=c2cc3c(cc2N1c1ccc(Cl)cc1)=Nc1ccccc1N3c1ccc(Cl)cc1            66.5
 3        O=C(/C(Cl)=N/O)c1ccc(-c2ccccc2)cc1             105
 4  Cc1onc(-c2ccccc2)c1C(=O)N/N=C/c1cc(Cl)cc(Cl)c1O            43.8
 5       O=C(c1ccc(O)c(Br)c1)c1ccc(O)c(Br)c1            94.3
 6  CCCOC(=O)c1nc(N(CC2CCCCC2)C(=O)NC)sc1/N=C/c1ccccc1            24.5
 7                    CCCCOS(=O)(=O)c1ccccc1             103
 8          O=C(O)c1cc2c(s1)C(=O)c1sccc1C2=O           -2.34
 9  NC(CS/C(Cl)=C/Cl)C(=O)O (stereo not given)            85.9
10                  CCCCCCCCCCCCNCCCc1ccccc1            92.2
11   CSc1nc(C)c(C(=O)CCN2CCN(c3ccccn3)CC2)s1            96.1
12             COc1ccc(/C=C2/C(=O)ON=C2C)cc1             106
13  COC(=O)c1ccc(=O)c2nc3/c(=C/O)c(O)cc(=O)c3[nH]c12            11.6
14  O=C1C(=O)c2cc([N+](=O)[O-])ccc2-c2ccccc21           -93.8
